meta.source: patent US7737309B2

Assay: Measurement of saturated solubility
Type: physicochemical
Conditions: distilled water at 25° C., 48 hours
Overview of recorded Concentration of acetamiprid for various compounds
Respond numerically; units are ppm and should not be typed.

# compound, Concentration of acetamiprid (ppm)
data = [
    ("CC(=NC#N)N(C)Cc1ccc(Cl)nc1.CO.Oc1ccc(C(c2ccc(O)cc2)C(c2ccc(O)cc2)c2ccc(O)cc2)cc1 [Clathrate compound 2]", 200),
    ("CC(=NC#N)N(C)Cc1ccc(Cl)nc1.CCO.Oc1ccc(C(c2ccc(O)cc2)C(c2ccc(O)cc2)c2ccc(O)cc2)cc1 [Clathrate compound 3]", 179),
]

Next compound, please.
**Q:** I am curious: what Concentration of acetamiprid value has been reported for CC(=NC#N)N(C)Cc1ccc(Cl)nc1.CC(=NC#N)N(C)Cc1ccc(Cl)nc1.Oc1ccc(C(c2ccc(O)cc2)C(c2ccc(O)cc2)c2ccc(O)cc2)cc1 [Clathrate compound 1] ?
**A:** 210

* * *

Assay: Measurement of saturated solubility
Assay type: physicochemical
Details: distilled water at 25° C., 192 hours
# Concentration of acetamiprid per record follows
Hi! Could you send only the number? It should be in ppm, unit omitted.

Study these solved cases before continuing.
# molecule, endpoint_value
measured = [
    ("CC(=NC#N)N(C)Cc1ccc(Cl)nc1.CCO.Oc1ccc(C(c2ccc(O)cc2)C(c2ccc(O)cc2)c2ccc(O)cc2)cc1 [Clathrate compound 3]", 230),
    ("CC(=NC#N)N(C)Cc1ccc(Cl)nc1.CO.Oc1ccc(C(c2ccc(O)cc2)C(c2ccc(O)cc2)c2ccc(O)cc2)cc1 [Clathrate compound 2]", 238),
]

API: the following record is the query input.
**Q:** Given the molecule CC(=NC#N)N(C)Cc1ccc(Cl)nc1.CC(=NC#N)N(C)Cc1ccc(Cl)nc1.Oc1ccc(C(c2ccc(O)cc2)C(c2ccc(O)cc2)c2ccc(O)cc2)cc1 [Clathrate compound 1] , what is its reported Concentration of acetamiprid?
**A:** 232

* * *

The following compounds are shown together with reported Concentration of acetamiprid values.
Assay: Measurement of saturated solubility
Format: physicochemical
Settings: distilled water at 25° C., 24 hours
Report only the number, with the unit ppm understood.

# compound, Concentration of acetamiprid, ppm
records = [
    ("CC(=NC#N)N(C)Cc1ccc(Cl)nc1.CC(=NC#N)N(C)Cc1ccc(Cl)nc1.Oc1ccc(C(c2ccc(O)cc2)C(c2ccc(O)cc2)c2ccc(O)cc2)cc1 [Clathrate compound 1]", 193),
    ("CC(=NC#N)N(C)Cc1ccc(Cl)nc1.CO.Oc1ccc(C(c2ccc(O)cc2)C(c2ccc(O)cc2)c2ccc(O)cc2)cc1 [Clathrate compound 2]", 161),
]

Now look at this one.
**Q:** Find the recorded Concentration of acetamiprid belonging to CC(=NC#N)N(C)Cc1ccc(Cl)nc1.CCO.Oc1ccc(C(c2ccc(O)cc2)C(c2ccc(O)cc2)c2ccc(O)cc2)cc1 [Clathrate compound 3] and report it.
**A:** 163

* * *

Entries annotated with measured Concentration of acetamiprid
Assay: Measurement of saturated solubility
Format: physicochemical
Conditions: distilled water at 25° C., 1 hour
Reply with just the number (in ppm).

# compound, unit_abbreviation, Concentration of acetamiprid
records = [
    ("CC(=NC#N)N(C)Cc1ccc(Cl)nc1.CC(=NC#N)N(C)Cc1ccc(Cl)nc1.Oc1ccc(C(c2ccc(O)cc2)C(c2ccc(O)cc2)c2ccc(O)cc2)cc1 [Clathrate compound 1]", "ppm", 121),
    ("CC(=NC#N)N(C)Cc1ccc(Cl)nc1.CCO.Oc1ccc(C(c2ccc(O)cc2)C(c2ccc(O)cc2)c2ccc(O)cc2)cc1 [Clathrate compound 3]", "ppm", 156),
]

# evaluate next
**Q:** For CC(=NC#N)N(C)Cc1ccc(Cl)nc1.CO.Oc1ccc(C(c2ccc(O)cc2)C(c2ccc(O)cc2)c2ccc(O)cc2)cc1 [Clathrate compound 2] , what is its reported Concentration of acetamiprid?
**A:** 72
